# EXPERIMENT: qHTS assay for small molecule agonists of the p53 signaling pathway - cell viability (AID 651633); note: nearly all actives have a fitted effect of over 30% in size
# EXPERIMENTAL PARAMETERS: p53RE-bla HCT-116 viability, ATP luminescence, 16 h; series mostly up to 83.3 µM
# Description: National Center for Advancing Translational Sciences [NCATS] NIH Chemical Genomics Center [NCGC] U.S. Environmental Protection Agency [EPA] National Institutes of Environmental Health Sciences [NIEHS] National Toxicology Program [NTP] U.S. Food and Drug Administration [FDA] p53, a tumor suppressor protein, is activated following cellular insult, including DNA damage and other cellular stresses. […] The activation of the reporter gene under culture conditions can be detected by fluorescence intensity. […]
Inconclusive results are not listed. The source made the active and inactive calls. Calls come from the whole dose curve.
Classes used: Yes = active, No = inactive

1) COc1ccc(/C=C/C(=O)OCCC(C)C)cc1 : No
2) CC(C(=O)O)c1ccc(C2CCCCC2)c2ccccc12 (stereo not given) : No
3) CC(=O)OCC(=O)[C@@]1(O)[C@H](C)C[C@H]2[C@@H]3C[C@H](F)C4=CC(=O)C=C[C@]4(C)[C@H]3[C@@H](O)C[C@@]21C : No
4) CC1=C(/C=C/C(C)=C/C=C/C(C)=C/C=C/C=C(C)/C=C/C=C(C)/C=C/C2=C(C)C(=O)CCC2(C)C)C(C)(C)CCC1=O : No
5) CCOC(=O)[C@@H](N)CS : No
6) CO/N=C(\C(=O)N[C@@H]1C(=O)N2C(C(=O)O)=CCS[C@H]12)c1csc(N)n1 : No
7) CC(=O)[C@]1(O)Cc2c(O)c3c(c(O)c2[C@@H](O[C@H]2C[C@H](N)[C@H](O)[C@H](C)O2)C1)C(=O)c1c(O)cccc1C3=O : No
8) CCOc1ccc(N=Nc2ccc(N)cc2N)cc1 : No
9) CCCCCCCCCCCCCCCCCC(=O)OCCO : No
10) CCCOc1cc(N)ccc1C(=O)OCCN(CC)CC : No
11) C[C@H]1C[C@@H]2[C@H]([C@@H](O)C[C@@]3(C)[C@H]2CC[C@]3(O)C(=O)COC(=O)CCC(=O)O)[C@@]2(C)C=CC(=O)C=C12 : No
12) CCC(Cc1c(I)cc(I)c(O)c1I)C(=O)O (stereo not given) : No
13) COC(F)(F)C(Cl)Cl : No
14) COc1cc([C@@H]2c3cc4c(cc3C(O[C@@H]3O[C@@H]5CO[C@@H](C)O[C@H]5[C@H](O)[C@H]3O)C3COC(=O)[C@@H]32)OCO4)cc(OC)c1OP(=O)(O)O (stereo not given in full) : No
15) NCCCC[C@H](N)C(=O)O : No
16) O=C(CO)[C@@H](O)[C@H](O)[C@@H](O)C(=O)O : No
17) Cc1ccccc1OCC(O)CNCCOc1ccc(C(N)=O)cc1 (stereo not given) : No
18) CN1CCN2c3ncccc3Cc3ccccc3C2C1 (stereo not given) : No
19) CCCCCC(O)/C=C/C=O (stereo not given) : No
20) O=C(NCCNCC(O)COc1ccc(O)cc1)N1CCOCC1 (stereo not given) : No
21) N#Cc1ccc2c(c1)N(CCCN1CCC(O)CC1)c1ccccc1S2 : No
22) CCOC(=O)[C@H](CCc1ccccc1)N[C@@H](C)C(=O)N1CC2(C[C@H]1C(=O)O)SCCS2 : No
23) C[N+]1(C)CCN(CC(O)(c2ccccc2)C2CCCCC2)CC1 (stereo not given) : No
24) CC(C(=O)O)c1ccc(N2Cc3ccccc3C2=O)cc1 (stereo not given) : No
25) NCCCNCCCCNC(=O)C(O)NC(=O)CCCCCCN=C(N)N (stereo not given) : No
26) CC(C)N1CCN(c2ccc(OC[C@H]3CO[C@](Cn4cncn4)(c4ccc(Cl)cc4Cl)O3)cc2)CC1 : Yes
27) CCC(=O)OCC(=O)[C@@]1(OC(=O)CC)[C@H](C)C[C@H]2[C@H]3[C@H]([C@@H](O)C[C@@]21C)[C@@]1(C)C=CC(=O)C=C1C[C@H]3Cl : No
28) CCCCCCCCCCCCCCCCSCC(COC)COP(=O)([O-])OCC[N+](C)(C)C (stereo not given) : No
29) CC(=O)N(CC(C)C(=O)O)c1c(I)cc(I)c(N)c1I (stereo not given) : No
30) c1ccc2cc(C3=NCCN3)ccc2c1 : No
31) c1ccc2c(c1)Sc1ccccc1N2CCN1CCCC1 : No
32) C[C@H]1[C@@H](OC(=O)CCC(=O)O)O[C@@H]2OC3(C)CC[C@H]4[C@H](C)CC[C@@H]1[C@@]24OO3 : No
33) CO[C@H]1C=CO[C@@]2(C)Oc3c(C)c(O)c4c(O)c(c(/C=N/N5CCN(C6CCCC6)CC5)c(O)c4c3C2=O)NC(=O)/C(C)=C\C=C[C@H](C)[C@H](O)[C@@H](C)[C@@H](O)[C@@H](C)[C@H](OC(C)=O)[C@@H]1C : Yes
34) CCCCCCCCCCCCCCCCOCCOCCOCCOCCOCCOCCOCCOCCOCCOCCOCCOCCOCCOCCOCCOCCOCCOCCOCCOCCO : Yes
35) Nc1c(Br)cc(Br)cc1CNC1CCC(O)CC1 (stereo not given) : No
36) CCCCCCCCCCCCCCCC(=O)OC[C@@H](NC(=O)C(Cl)Cl)[C@H](O)c1ccc([N+](=O)[O-])cc1 : No
37) CN1[C@@H]2CCC[C@H]1CC(NC(=O)c1nn(C)c3ccccc13)C2 (stereo not given in full) : No
38) CCCCC(C)(O)C/C=C/[C@H]1[C@H](O)CC(=O)[C@@H]1CCCCCCC(=O)OC (stereo not given in full) : No
39) OCCN1CCN(CC/C=C2/c3ccccc3Sc3ccc(Cl)cc32)CC1 : No
40) CC(C)c1nc(N(C)S(C)(=O)=O)nc(-c2ccc(F)cc2)c1/C=C/C(O)CC(O)CC(=O)O (stereo not given) : No
